Kindly state hP2X23/hP2X3* Selectivity (1321N1) for each of the entries shown.
Target: human P2X2/3 receptors (Homo sapiens, UniProt P56373+Q9UBL9)
Construct: expressed in transfected cells; host or cells: human astrocytoma 1321N1 (1312N1 [sic])
Sequence (P56373 whole entry): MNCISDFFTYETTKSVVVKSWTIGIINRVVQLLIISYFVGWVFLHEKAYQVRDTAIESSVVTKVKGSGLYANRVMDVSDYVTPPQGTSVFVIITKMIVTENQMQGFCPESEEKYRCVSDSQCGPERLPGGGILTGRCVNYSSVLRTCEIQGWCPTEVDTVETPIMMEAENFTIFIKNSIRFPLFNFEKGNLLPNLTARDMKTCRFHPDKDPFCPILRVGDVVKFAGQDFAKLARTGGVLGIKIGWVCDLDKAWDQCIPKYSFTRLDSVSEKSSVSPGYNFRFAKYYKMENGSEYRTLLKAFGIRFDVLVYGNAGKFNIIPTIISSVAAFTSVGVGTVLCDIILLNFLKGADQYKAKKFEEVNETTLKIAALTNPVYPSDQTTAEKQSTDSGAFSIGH
Sequence (Q9UBL9 whole entry): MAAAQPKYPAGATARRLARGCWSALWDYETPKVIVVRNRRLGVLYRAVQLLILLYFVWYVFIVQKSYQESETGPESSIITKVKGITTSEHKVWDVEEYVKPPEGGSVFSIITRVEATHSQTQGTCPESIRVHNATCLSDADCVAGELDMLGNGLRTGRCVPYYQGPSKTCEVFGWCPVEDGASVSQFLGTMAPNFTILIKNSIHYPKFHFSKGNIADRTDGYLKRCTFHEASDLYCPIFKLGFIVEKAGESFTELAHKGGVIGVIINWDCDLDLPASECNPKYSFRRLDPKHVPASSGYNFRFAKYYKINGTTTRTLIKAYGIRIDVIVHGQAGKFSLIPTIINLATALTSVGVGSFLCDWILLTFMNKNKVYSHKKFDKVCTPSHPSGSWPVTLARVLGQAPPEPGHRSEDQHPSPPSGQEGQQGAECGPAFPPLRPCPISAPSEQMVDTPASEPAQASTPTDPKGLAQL
Assay: Intracellular calcium measurement, antagonist activity at human P2X2/3 receptors (hP2X23 1321N1), Fluo8
Assay type: cell-based
Settings: ratio of column 4) hP2X2/3 to column 3) hP2X3, 1321N1
No unit in the answer, please; the number alone is enough.

Q: Dear colleague, I am looking for the recorded hP2X23/hP2X3* Selectivity (1321N1) of the following compound: CC(C)N1Cc2c(n(CC(=O)Nc3ccc(F)cn3)c3cc(C4CCN(C5CCC5)C4)nn3c2=O)C1=O (stereo not drawn) [Example 250]
Ans: 36

Q: Dear colleague, I am looking for the recorded hP2X23/hP2X3* Selectivity (1321N1) of the following compound: CCc1cc2n(CC(=O)Nc3ccc(F)cn3)c3c(c(=O)n2n1)CN(Cc1cccnc1)C3=O [Example 107]
Ans: 294

Q: Dear colleague, I am looking for the recorded hP2X23/hP2X3* Selectivity (1321N1) of the following compound: CCc1cc2n(CC(=O)Nc3ccc(F)cn3)c3c(c(=O)n2n1)CN(C(COC)COC)C3=O [Example 99]
Ans: 607

Q: Dear colleague, I am looking for the recorded hP2X23/hP2X3* Selectivity (1321N1) of the following compound: CCc1cc2n(CC(=O)Nc3ccc(Br)cn3)c3c(c(=O)n2n1)CN(C(C)C)C3=O [Example 67]
Ans: 29

Q: Dear colleague, I am looking for the recorded hP2X23/hP2X3* Selectivity (1321N1) of the following compound: CCc1cc2n(CC(=O)Nc3ccc(F)cn3)c3c(c(=O)n2n1)CN(C[C@H]1CN(C2CCC2)CCO1)C3=O [Example 257]
Ans: 12

Q: Dear colleague, I am looking for the recorded hP2X23/hP2X3* Selectivity (1321N1) of the following compound: Cc1ccc(NC(=O)Cn2c3c(c(=O)n4nc(C5CCOCC5)cc24)CN(C(C)C)C3=O)nc1 [Example 59]
Ans: 90

Q: Dear colleague, I am looking for the recorded hP2X23/hP2X3* Selectivity (1321N1) of the following compound: CC(C)N1Cc2c(n(CC(=O)Nc3ccc(F)cn3)c3cc(C4CCOCC4)nn3c2=O)C1=O [Example 58]
Ans: 277

Hey, just so you know, these numbers are from patent US11319324B2.
